# protocolNotes: NCI Yeast Anticancer Drug Screen. Data for the mec2-1 strain (AID 157)
# settings: S. cerevisiae mec2-1 strain, at 50.0 µM, active compounds read high
The panel holds about 79,000 compounds, 15% with a hit somewhere; the sample as a whole holds those more often.
Reported growth inhibition values for a set of compounds
quantityName: growth inhibition (%)

compound: CCOC(=O)C(=O)Nc1nc2ccc(OC)cc2s1
quantityName: growth inhibition
unitsLabel: %
numericReadout: -7.3

compound: CCc1ccccc1NC(=O)NCC(C)C
quantityName: growth inhibition
unitsLabel: %
numericReadout: -20.3

compound: CCOc1ccc(C(=O)OCCCl)cc1
quantityName: growth inhibition
unitsLabel: %
numericReadout: 0.75

compound: NC(=O)SCC(=O)Nc1ccccc1O
quantityName: growth inhibition
unitsLabel: %
numericReadout: -27.4

compound: CCOC(=O)CC1C(O)C(=O)N(C)C1c1ccccc1 (centres undefined)
quantityName: growth inhibition
unitsLabel: %
numericReadout: -8.05

compound: C/C(=C1/N=C(c2cc([N+](=O)[O-])ccc2Cl)N(c2ccc(Br)cc2)C1=O)c1cc2ccccc2oc1=O
quantityName: growth inhibition
unitsLabel: %
numericReadout: 17.7

compound: CC(C)(C)NNC(=O)/C(=C/c1ccc(Oc2ccc(Cl)c(Cl)c2)cc1)NC(=O)c1ccccc1
quantityName: growth inhibition
unitsLabel: %
numericReadout: 1.1

compound: CSc1nnc(CCC(=O)Nc2ccc(Cl)cc2Cl)o1
quantityName: growth inhibition
unitsLabel: %
numericReadout: 12.5

compound: Cc1cn(C2CC(O)C(CO)O2)c(=O)nc1N1CCCCCCC1 (centres undefined)
quantityName: growth inhibition
unitsLabel: %
numericReadout: -4.8

compound: Cc1cc(=O)n(Cc2ccco2)c(=S)[nH]1
quantityName: growth inhibition
unitsLabel: %
numericReadout: -25.4

compound: O=C(CCl)Nc1ccc(SSc2ccc(NC(=O)CCl)cc2)cc1
quantityName: growth inhibition
unitsLabel: %
numericReadout: 13

compound: COC(=O)C(Cc1nc2ccc(Cl)cc2[nH]c1=O)/C(=N/O)C(=O)Nc1cccc(Cl)c1C (centres undefined)
quantityName: growth inhibition
unitsLabel: %
numericReadout: 0.95

compound: CCOC(=O)c1cn(CC)c2cc(-n3cccc3)c(F)cc2c1=O
quantityName: growth inhibition
unitsLabel: %
numericReadout: 27.6

compound: CC(C)NC(=O)NCCc1c[nH]c2ccccc12
quantityName: growth inhibition
unitsLabel: %
numericReadout: -11.8

compound: C=CCN1C(=O)NC(=O)C1c1ccsc1 (centres undefined)
quantityName: growth inhibition
unitsLabel: %
numericReadout: -0.25

compound: Nc1ccc(OCC(O)N2C(=O)c3ccccc3C2=O)cc1 (centres undefined)
quantityName: growth inhibition
unitsLabel: %
numericReadout: -39.5

compound: C=C1CCC(OC(C)=O)C2(C)C(OC(C)=O)CC3OC3(C)C2C(OC(C)=O)C2C(C)C(=O)OC2C1Cl (centres undefined)
quantityName: growth inhibition
unitsLabel: %
numericReadout: -20.8

compound: CCCN1c2c3c(O)c4c(O)c(C)c5c(c4c2O)C(=O)C(C)(O/C=C/C(OC)C(C)C(OC(C)=O)C(C)C(O)C(C)C(O)C(C)/C=C/C=C(/C)C(=O)N3C1C)O5 (centres undefined)
quantityName: growth inhibition
unitsLabel: %
numericReadout: 35.9

compound: COC(=O)c1nc(N)nc(C(=O)OC)c1C(=O)c1ccc(Cl)c(Cl)c1
quantityName: growth inhibition
unitsLabel: %
numericReadout: 7.15

compound: Cc1cccc(NC(=O)/C=C/c2ccccc2)n1
quantityName: growth inhibition
unitsLabel: %
numericReadout: -26.5

compound: COC(=O)C1CCC2C3CCCCC3CCC2C1(C)C(=O)OC (centres undefined)
quantityName: growth inhibition
unitsLabel: %
numericReadout: 2

compound: Cc1ccc2nc(-c3ccc(N)cc3)sc2c1S(=O)(=O)O
quantityName: growth inhibition
unitsLabel: %
numericReadout: 2.15

compound: COc1ccc2c(NCCCCCCNc3c4ccccc4nc4cc(OC)ccc34)c3ccccc3nc2c1
quantityName: growth inhibition
unitsLabel: %
numericReadout: 91.6

compound: O=NC1CC=CC1Cl (centres undefined)
quantityName: growth inhibition
unitsLabel: %
numericReadout: 0.1

compound: N#Cc1cccc(C2SCc3nc4ccccc4n32)c1 (centres undefined)
quantityName: growth inhibition
unitsLabel: %
numericReadout: -8.9

compound: O=C(c1nc2ccc([N+](=O)[O-])cc2[nH]c1=O)C(O)c1ccc2c(c1)OCO2 (centres undefined)
quantityName: growth inhibition
unitsLabel: %
numericReadout: -9.25

compound: O=c1c(O)c(-c2ccccc2)oc2c(CP(=O)(O)O)cccc12
quantityName: growth inhibition
unitsLabel: %
numericReadout: -19.1

compound: Cc1ccc(C(=O)c2ccccc2Cc2ccc3ccccc3c2)cc1
quantityName: growth inhibition
unitsLabel: %
numericReadout: 0.8

compound: O=C1c2ccccc2C(=C(c2ccccc2)c2ccccc2)c2ccccc21
quantityName: growth inhibition
unitsLabel: %
numericReadout: -19.5

compound: COc1ccc(C2c3cc4c(cc3OC3(N5CCCC5)CCCC23)OCO4)c(OC)c1 (centres undefined)
quantityName: growth inhibition
unitsLabel: %
numericReadout: -6.8

compound: CNCCCCCCNc1cc(OC)cc2cccnc12
quantityName: growth inhibition
unitsLabel: %
numericReadout: 18.7

compound: Brc1ccc(Br)c2nc(/C=C/c3ccccc3)ccc12
quantityName: growth inhibition
unitsLabel: %
numericReadout: 1.85

compound: Cc1ccc2c(c1)C1(OC(=O)c3ccccc31)c1ccc(F)cc1O2 (centres undefined)
quantityName: growth inhibition
unitsLabel: %
numericReadout: 12.8

compound: COc1cc2c(c(OC)c1OC)-c1ccc(S(=O)(=O)Cc3ccccc3)c(=O)cc1C(NC(C)=O)CC2 (centres undefined)
quantityName: growth inhibition
unitsLabel: %
numericReadout: 16.2

compound: CCCCCC/C(=C\c1ccc(O)cc1)C(=O)O
quantityName: growth inhibition
unitsLabel: %
numericReadout: 36.1

compound: NNC(=O)C(=O)NN=C(C(Cl)(Cl)CO)C(Cl)(Cl)CO
quantityName: growth inhibition
unitsLabel: %
numericReadout: -0.65

compound: CCN(CC)c1cc(-c2ccccc2)oc(=O)c1Cl
quantityName: growth inhibition
unitsLabel: %
numericReadout: -10.3

compound: CN1CCC(CNc2ccccc2)CC1
quantityName: growth inhibition
unitsLabel: %
numericReadout: -0.5

compound: COc1ccc(OC)c(C(=O)C=C(C(F)(F)F)C(F)(F)F)c1
quantityName: growth inhibition
unitsLabel: %
numericReadout: -0.95

compound: O=C1C2C3C=CC(C2C(=O)N1COP(=O)(O)O)C1C2C(=O)N(COP(=O)(O)O)C(=O)C2C31 (centres undefined)
quantityName: growth inhibition
unitsLabel: %
numericReadout: 0.3

compound: Cn1ccc(=O)n(C)c1=O
quantityName: growth inhibition
unitsLabel: %
numericReadout: -10.8

compound: CC(/C=N/N(C)C)=N\N(C)C
quantityName: growth inhibition
unitsLabel: %
numericReadout: 5.3

compound: S=C1SCN(c2ccc(Br)cc2)CN1c1ccc2[nH]c(=S)sc2c1
quantityName: growth inhibition
unitsLabel: %
numericReadout: 15.3

compound: CC[C@@H](C)[C@H]([C@H](CC(=O)N1CCC[C@@H]1[C@@H](OC)[C@H](C)C(=O)N[C@H](Cc1ccccc1)c1nccs1)OC)N(C)C(=O)[C@H](NC(=O)[C@@H](C(C)C)N(C)C)C(C)C
quantityName: growth inhibition
unitsLabel: %
numericReadout: -22.6
